- measured target: hTLR7 (Homo sapiens, UniProt Q9NYK1)
- Construct: expressed in transfected cells; host or cells: HEK-Blue hTLR cells
- Sequence (Q9NYK1 27-1049): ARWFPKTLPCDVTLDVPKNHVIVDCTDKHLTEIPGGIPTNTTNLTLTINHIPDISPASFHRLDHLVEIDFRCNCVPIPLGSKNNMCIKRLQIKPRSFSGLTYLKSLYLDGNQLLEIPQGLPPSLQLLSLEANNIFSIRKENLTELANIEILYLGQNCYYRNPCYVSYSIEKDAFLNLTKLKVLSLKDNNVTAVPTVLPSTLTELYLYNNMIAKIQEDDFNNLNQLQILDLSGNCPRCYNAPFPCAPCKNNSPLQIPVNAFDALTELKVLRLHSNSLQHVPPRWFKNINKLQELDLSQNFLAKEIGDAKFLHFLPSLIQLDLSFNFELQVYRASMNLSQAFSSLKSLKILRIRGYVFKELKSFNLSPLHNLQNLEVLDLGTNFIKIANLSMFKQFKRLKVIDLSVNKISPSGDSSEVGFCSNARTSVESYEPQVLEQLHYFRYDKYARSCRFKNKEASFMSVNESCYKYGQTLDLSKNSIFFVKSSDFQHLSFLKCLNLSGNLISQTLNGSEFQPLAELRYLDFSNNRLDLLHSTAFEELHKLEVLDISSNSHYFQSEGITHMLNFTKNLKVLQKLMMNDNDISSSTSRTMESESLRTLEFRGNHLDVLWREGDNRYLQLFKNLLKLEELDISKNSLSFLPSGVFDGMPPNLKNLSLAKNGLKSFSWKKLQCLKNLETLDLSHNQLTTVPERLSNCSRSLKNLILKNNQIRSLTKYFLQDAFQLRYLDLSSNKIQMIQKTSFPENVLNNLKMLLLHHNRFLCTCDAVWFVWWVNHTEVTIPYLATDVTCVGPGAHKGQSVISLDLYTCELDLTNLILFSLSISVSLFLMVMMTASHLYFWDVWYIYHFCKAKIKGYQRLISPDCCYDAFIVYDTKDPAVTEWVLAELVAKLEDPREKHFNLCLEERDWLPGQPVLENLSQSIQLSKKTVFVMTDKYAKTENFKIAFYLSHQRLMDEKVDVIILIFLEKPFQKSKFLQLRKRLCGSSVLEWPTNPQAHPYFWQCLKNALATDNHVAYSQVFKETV
- test summary: agonistic activity on hTLR7, HEK-Blue hTLR cells, SEAP reporter (QUANTI-Blue)
- Assay type: cell-based
measured endpoint: pEC50
Answer as the number alone; pEC50 is minus log10 of concentration in mol/L.

So for CCOCc1nc2c(N)nc3ccccc3c2n1C[C@@H](C)O[P@@](=O)(N[C@@H](C)C(=O)OC(C)C)Oc1ccccc1 (single isomer, unassigned) , the logged pEC50 turned out to be 5.55

So for CCOCc1nc2c(N)nc3ccccc3c2n1C[C@H](C)O[P@@](=O)(N[C@@H](C)C(=O)OC(C)C)Oc1ccccc1 (single isomer, unassigned) , the logged pEC50 turned out to be 5.52

---

Consider the following compounds; for each one, report its pEC50.
- measured target: hTLR8 (Homo sapiens)
- Construct: expressed in transfected cells; host or cells: HEK-Blue hTLR cells
- test summary: agonistic activity on hTLR8, HEK-Blue hTLR cells, SEAP reporter (QUANTI-Blue)
- Assay type: cell-based
- stated conditions: HEK-Blue hTLR cells, SEAP reporter, OD650, cultured 1 day; read-out: TLR 8 EC50
Answer as the number alone; pEC50 is minus log10 of concentration in mol/L.

So for CCOCc1nc2c(N)nc3ccccc3c2n1C[C@@H](C)O[P@@](=O)(N[C@@H](C)C(=O)OCc1ccccc1)Oc1ccccc1 (single isomer, unassigned) [Example 16A] , the logged pEC50 turned out to be 7.45

So for CCOCc1nc2c(N)nc3ccccc3c2n1C[C@@H](C)O[P@@](=O)(N[C@@H](C)C(=O)OC(C)(C)C)Oc1ccc(OC)cc1 (single isomer, unassigned) [Example 18A] , the logged pEC50 turned out to be 6.69

So for CCOCc1nc2c(N)nc3ccccc3c2n1C[C@@H](C)O[P@@](=O)(N[C@@H](C)C(=O)OC(C)C)Oc1ccccc1C (single isomer, unassigned) , the logged pEC50 turned out to be 6.67

---

- measured target: hTLR8 (Homo sapiens)
- Construct: expressed in transfected cells; host or cells: HEK-Blue hTLR cells
- test summary: agonistic activity on hTLR8, HEK-Blue hTLR cells, SEAP reporter (QUANTI-Blue)
- Type: cell-based
- stated conditions: HEK-Blue hTLR cells, SEAP reporter, OD650, cultured 1 day; read-out: TLR 8 EC50
measured endpoint: pEC50
Answer as the number alone; pEC50 is minus log10 of concentration in mol/L.

So for CCOCc1nc2c(N)nc3ccccc3c2n1C[C@@H](C)O[P@@](=O)(N[C@@H](C)C(=O)OC(C)C)Oc1ccccc1Cl (single isomer, unassigned) [Example 10A] , the logged pEC50 turned out to be 7.47

So for CCOCc1nc2c(N)nc3ccccc3c2n1C[C@@H](C)O[P@@](=O)(N[C@@H](C)C(=O)OC(C)C)Oc1cccc(C)c1 (single isomer, unassigned) , the logged pEC50 turned out to be 7.44

So for CCOCc1nc2c(N)nc3ccccc3c2n1C[C@@H](C)O[P@](=O)(N[C@@H](C)C(=O)OC(C)C)Oc1ccc(Cl)cc1 (single isomer, unassigned) [Example 12B] , the logged pEC50 turned out to be 7.31

So for CCOCc1nc2c(N)nc3ccccc3c2n1C[C@@H](C)O[P@@](=O)(N[C@@H](C)C(=O)OC(C)C)Oc1ccc(Cl)cc1 (single isomer, unassigned) [Example 12A] , the logged pEC50 turned out to be 8.46

---

- measured target: hTLR8 (Homo sapiens, UniProt Q9NR97)
- Construct: expressed in transfected cells; host or cells: HEK-Blue hTLR cells
- Sequence (Q9NR97 27-1041): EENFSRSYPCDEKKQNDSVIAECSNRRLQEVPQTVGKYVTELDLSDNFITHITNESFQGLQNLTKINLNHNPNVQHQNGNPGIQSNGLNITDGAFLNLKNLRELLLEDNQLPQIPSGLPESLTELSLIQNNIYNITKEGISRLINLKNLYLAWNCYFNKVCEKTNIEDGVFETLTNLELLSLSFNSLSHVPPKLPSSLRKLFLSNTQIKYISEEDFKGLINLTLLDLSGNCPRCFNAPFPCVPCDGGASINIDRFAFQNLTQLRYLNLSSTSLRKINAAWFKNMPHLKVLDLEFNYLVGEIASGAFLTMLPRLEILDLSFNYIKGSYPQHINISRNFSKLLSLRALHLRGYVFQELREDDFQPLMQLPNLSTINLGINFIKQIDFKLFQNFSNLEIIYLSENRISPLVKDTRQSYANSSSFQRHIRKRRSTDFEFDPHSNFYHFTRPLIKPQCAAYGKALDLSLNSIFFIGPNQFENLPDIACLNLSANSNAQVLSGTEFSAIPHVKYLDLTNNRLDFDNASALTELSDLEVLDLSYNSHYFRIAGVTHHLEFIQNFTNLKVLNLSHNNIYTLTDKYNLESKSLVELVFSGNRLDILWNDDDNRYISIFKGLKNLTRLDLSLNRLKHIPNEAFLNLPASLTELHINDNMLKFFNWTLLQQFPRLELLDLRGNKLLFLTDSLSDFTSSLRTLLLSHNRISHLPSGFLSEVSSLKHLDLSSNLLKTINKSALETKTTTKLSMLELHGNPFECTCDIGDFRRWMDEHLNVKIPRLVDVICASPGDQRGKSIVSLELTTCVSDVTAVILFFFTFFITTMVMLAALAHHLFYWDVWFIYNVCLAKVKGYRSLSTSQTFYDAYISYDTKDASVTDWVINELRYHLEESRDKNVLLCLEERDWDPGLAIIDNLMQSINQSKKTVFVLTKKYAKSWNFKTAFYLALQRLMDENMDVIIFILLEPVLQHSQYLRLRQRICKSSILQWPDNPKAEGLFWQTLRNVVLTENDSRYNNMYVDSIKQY
- test summary: agonistic activity on hTLR8, HEK-Blue hTLR cells, SEAP reporter (QUANTI-Blue)
- Type: cell-based
- stated conditions: HEK-Blue hTLR cells, SEAP reporter, OD650, cultured 1 day; read-out: TLR 8 EC50
Criterion: EC50 strictly under 1 µM. Met: Met. Not met: Not met.

// query # TODO verify EC50 < 1 µM strictly for this molecule: CCOCc1nc2c(N)nc3ccccc3c2n1C[C@@H](C)OP(=O)(N[C@@H](C)C(F)(F)F)Oc1ccccc1 (single isomer, unassigned) [Example 24A]
// result Not met

// query # TODO verify EC50 < 1 µM strictly for this molecule: CCOCc1nc2c(N)nc3ccccc3c2n1C[C@@H](C)O[P@](=O)(N[C@@H](C)C(=O)OC(C)(C)C)Oc1ccccc1 (single isomer, unassigned) [Example 14B]
// result Not met

// query # TODO verify EC50 < 1 µM strictly for this molecule: CCOCc1nc2c(N)nc3ccccc3c2n1C[C@@H](C)O[P@@](=O)(N[C@@H](C)C(=O)OC(C)(C)C)Oc1ccc(Cl)cc1 (single isomer, unassigned) [Example 19A]
// result Met

// query # TODO verify EC50 < 1 µM strictly for this molecule: CCOCc1nc2c(N)nc3ccccc3c2n1C[C@@H](C)O[P@](=O)(N[C@@H](C)C(C)C)Oc1ccc(Cl)cc1 [Example 23B]
// result Not met

// query # TODO verify EC50 < 1 µM strictly for this molecule: CCOCc1nc2c(N)nc3ccccc3c2n1C[C@@H](C)O[P@@](=O)(N[C@@H](C)C(=O)OC(C)C)Oc1ccc2ccccc2c1 (single isomer, unassigned) [Example 6A]
// result Met

// query # TODO verify EC50 < 1 µM strictly for this molecule: CCOCc1nc2c(N)nc3ccccc3c2n1C[C@H](C)O[P@](=O)(N[C@@H](C)C(=O)OC(C)C)Oc1ccccc1 (single isomer, unassigned) [Example 3B]
// result Not met

// query # TODO verify EC50 < 1 µM strictly for this molecule: CCOCc1nc2c(N)nc3ccccc3c2n1C[C@@H](C)O[P@](=O)(N[C@@H](C)C(=O)OC(C)C)Oc1ccccc1C (single isomer, unassigned) [Example 7B]
// result Met

// query # TODO verify EC50 < 1 µM strictly for this molecule: CCOCc1nc2c(N)nc3ccccc3c2n1CC(C)O (stereo not drawn) [Example 1]
// result Not met

// query # TODO verify EC50 < 1 µM strictly for this molecule: CCOCc1nc2c(N)nc3ccccc3c2n1C[C@@H](C)O[P@@](=O)(N[C@@H](C)C(C)C)Oc1ccc(Cl)cc1 [Example 23A]
// result Not met

// query # TODO verify EC50 < 1 µM strictly for this molecule: CCOCc1nc2c(N)nc3ccccc3c2n1C[C@@H](C)O[P@@](=O)(N[C@@H](C)C(=O)OC(C)(C)C)Oc1ccc(C)cc1 (single isomer, unassigned) [Example 17A]
// result Met

// query # TODO verify EC50 < 1 µM strictly for this molecule: CCOCc1nc2c(N)nc3ccccc3c2n1C[C@@H](C)O[P@](=O)(N[C@@H](C)C(=O)OC)Oc1ccccc1 (single isomer, unassigned) [Example 15B]
// result Met

// query # TODO verify EC50 < 1 µM strictly for this molecule: CCOCc1nc2c(N)nc3ccccc3c2n1C[C@@H](C)O[P@](=O)(N[C@@H](C)COC)Oc1ccc(Cl)cc1 [Example 25B]
// result Not met

---

- measured target: hTLR7 (Homo sapiens, UniProt Q9NYK1)
- Construct: expressed in transfected cells; host or cells: HEK-Blue hTLR cells
- test summary: agonistic activity on hTLR7, HEK-Blue hTLR cells, SEAP reporter (QUANTI-Blue)
- Format: cell-based
- stated conditions: HEK-Blue hTLR cells, SEAP reporter, OD650, cultured 1 day; read-out: TLR 7 EC50
pEC50: −log10 of the molar value.
measured endpoint: pEC50

So for CCOCc1nc2c(N)nc3ccccc3c2n1C[C@@H](C)O[P@@](=O)(N[C@@H](C)C(=O)OC(C)(C)C)Oc1ccc(Cl)cc1 (single isomer, unassigned) [Example 19A] , the logged pEC50 turned out to be < 4.52

So for CCOCc1nc2c(N)nc3ccccc3c2n1C[C@@H](C)O[P@@](=O)(N[C@@H](C)C(=O)OC(C)C)Oc1cccc2ccccc12 (single isomer, unassigned) , the logged pEC50 turned out to be < 5.00

So for CCOCc1nc2c(N)nc3ccccc3c2n1C[C@@H](C)O[P@](=O)(N[C@@H](C)C(=O)OC(C)C)Oc1ccccc1 (single isomer, unassigned) , the logged pEC50 turned out to be < 4.52

So for CCOCc1nc2c(N)nc3ccccc3c2n1C[C@@H](C)O[P@@](=O)(N[C@@H](C)C(=O)OC(C)(C)C)Oc1ccc(C)cc1 (single isomer, unassigned) [Example 17A] , the logged pEC50 turned out to be < 4.52
